Molecular target: Q46 protein aggregates (Homo sapiens, UniProt P42858)
Construct: fused on or other part: An N-terminal GST tag, cleaved off with thrombin before the assay to trigger aggregation
Sequence (P42858 with tags, fused parts or gaps with the stated changes, form open): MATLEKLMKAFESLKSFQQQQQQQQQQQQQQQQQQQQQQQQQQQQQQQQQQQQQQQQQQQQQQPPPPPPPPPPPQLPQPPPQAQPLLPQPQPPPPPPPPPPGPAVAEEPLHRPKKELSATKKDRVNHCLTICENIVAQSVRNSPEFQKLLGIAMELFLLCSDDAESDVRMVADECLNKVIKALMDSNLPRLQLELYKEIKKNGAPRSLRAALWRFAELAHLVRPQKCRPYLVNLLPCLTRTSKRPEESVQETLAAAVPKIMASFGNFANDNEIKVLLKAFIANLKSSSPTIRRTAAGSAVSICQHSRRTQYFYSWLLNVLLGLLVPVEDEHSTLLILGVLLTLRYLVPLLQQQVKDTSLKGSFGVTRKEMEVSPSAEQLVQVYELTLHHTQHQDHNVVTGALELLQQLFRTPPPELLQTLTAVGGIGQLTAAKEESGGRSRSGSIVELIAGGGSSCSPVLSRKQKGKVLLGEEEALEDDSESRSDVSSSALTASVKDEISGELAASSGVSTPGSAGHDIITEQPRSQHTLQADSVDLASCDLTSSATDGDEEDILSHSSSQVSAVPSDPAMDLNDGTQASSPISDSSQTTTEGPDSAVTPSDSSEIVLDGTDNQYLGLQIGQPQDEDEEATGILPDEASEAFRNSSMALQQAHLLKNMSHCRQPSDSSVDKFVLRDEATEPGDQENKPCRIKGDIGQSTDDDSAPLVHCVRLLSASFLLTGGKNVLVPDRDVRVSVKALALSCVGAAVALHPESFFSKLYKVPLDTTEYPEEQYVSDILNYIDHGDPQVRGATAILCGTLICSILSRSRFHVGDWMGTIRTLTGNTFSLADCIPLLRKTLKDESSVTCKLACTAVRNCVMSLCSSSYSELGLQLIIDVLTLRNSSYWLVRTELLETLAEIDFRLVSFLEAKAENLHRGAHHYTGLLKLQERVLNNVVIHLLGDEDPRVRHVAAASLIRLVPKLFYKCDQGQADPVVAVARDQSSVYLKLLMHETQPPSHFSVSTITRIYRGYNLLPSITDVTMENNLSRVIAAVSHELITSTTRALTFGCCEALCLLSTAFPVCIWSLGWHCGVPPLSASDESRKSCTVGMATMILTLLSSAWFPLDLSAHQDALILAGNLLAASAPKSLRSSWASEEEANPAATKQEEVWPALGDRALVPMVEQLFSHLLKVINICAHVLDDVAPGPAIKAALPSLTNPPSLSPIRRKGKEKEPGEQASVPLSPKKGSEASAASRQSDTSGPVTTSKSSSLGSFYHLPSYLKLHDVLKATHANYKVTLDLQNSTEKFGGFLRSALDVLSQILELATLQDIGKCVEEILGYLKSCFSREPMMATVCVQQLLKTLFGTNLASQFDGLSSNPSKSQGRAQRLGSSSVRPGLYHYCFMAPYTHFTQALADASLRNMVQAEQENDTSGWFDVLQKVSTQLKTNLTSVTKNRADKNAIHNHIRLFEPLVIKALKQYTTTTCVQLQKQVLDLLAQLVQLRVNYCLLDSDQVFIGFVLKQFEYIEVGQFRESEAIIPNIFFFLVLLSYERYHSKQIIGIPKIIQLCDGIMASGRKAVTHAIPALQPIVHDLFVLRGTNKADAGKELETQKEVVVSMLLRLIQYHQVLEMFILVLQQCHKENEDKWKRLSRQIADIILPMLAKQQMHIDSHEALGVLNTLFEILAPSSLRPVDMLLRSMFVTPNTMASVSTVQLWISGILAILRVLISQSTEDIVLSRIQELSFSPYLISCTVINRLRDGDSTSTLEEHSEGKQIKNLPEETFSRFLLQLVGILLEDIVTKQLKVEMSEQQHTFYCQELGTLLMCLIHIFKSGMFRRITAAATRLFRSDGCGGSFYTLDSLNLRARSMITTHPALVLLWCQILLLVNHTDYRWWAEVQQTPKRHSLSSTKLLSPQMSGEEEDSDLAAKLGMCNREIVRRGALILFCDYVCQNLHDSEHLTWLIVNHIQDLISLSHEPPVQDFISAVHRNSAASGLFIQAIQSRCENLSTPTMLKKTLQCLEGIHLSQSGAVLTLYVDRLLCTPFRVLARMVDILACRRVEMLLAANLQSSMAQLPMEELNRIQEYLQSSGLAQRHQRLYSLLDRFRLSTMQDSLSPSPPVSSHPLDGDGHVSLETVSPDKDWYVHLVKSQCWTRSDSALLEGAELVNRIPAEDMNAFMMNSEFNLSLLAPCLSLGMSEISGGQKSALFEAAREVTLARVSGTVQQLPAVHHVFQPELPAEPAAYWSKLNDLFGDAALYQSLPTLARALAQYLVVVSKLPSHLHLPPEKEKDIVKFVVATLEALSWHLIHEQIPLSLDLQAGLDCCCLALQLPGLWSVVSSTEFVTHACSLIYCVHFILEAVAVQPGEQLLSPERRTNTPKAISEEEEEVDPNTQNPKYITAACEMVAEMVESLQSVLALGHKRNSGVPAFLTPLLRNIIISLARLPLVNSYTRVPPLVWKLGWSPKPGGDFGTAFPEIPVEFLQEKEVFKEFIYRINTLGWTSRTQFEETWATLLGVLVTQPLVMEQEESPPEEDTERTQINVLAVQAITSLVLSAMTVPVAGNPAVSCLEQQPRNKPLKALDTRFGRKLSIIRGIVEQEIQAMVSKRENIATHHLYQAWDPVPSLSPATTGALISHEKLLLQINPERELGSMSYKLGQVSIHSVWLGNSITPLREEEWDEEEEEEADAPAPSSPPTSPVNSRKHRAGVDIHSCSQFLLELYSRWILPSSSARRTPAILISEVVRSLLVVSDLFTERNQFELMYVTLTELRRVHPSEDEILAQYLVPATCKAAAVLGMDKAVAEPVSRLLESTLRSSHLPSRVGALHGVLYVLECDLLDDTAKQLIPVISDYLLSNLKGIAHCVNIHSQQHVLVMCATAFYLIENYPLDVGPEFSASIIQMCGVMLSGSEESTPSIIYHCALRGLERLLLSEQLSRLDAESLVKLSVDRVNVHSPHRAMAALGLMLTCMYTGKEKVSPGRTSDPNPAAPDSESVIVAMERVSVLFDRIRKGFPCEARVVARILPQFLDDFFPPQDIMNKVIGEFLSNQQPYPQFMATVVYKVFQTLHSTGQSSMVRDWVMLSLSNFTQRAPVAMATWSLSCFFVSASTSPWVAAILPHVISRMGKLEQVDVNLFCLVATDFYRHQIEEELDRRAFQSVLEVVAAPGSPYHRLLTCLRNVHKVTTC
Assay: Q46 Radioligand Binding Assay (RBA), displacement of [^3H3]MK-3328
Conditions: 10 nM [^3H3]MK-3328, 5 μM Q46 protein aggregates
# IC50 values compiled below
assayReadout: IC50

- compoundSmiles: "COc1ccc2c(c1)sc1nc(C(=O)N(C)c3cccnc3)cn12"
  experimentalValue: "100 to 500 nM"
- compoundSmiles: "COCCOc1cncc(NC(=O)c2ccn3c(n2)nc2ccccc23)c1"
  experimentalValue: "< 100 nM"
- compoundSmiles: "COc1ccc2c(c1)nc1nc(C(=O)Nc3ccncc3C#N)ccn12"
  experimentalValue: "< 100 nM"
- compoundSmiles: "COc1ccc2c(c1)sc1nc(C(=O)Nc3cnn(C)c3)cn12"
  experimentalValue: "100 to 500 nM"
- compoundSmiles: "O=C(Nc1cccnc1)c1cn2c(n1)sc1cc(OCCF)ccc12"
  experimentalValue: "< 100 nM"
- compoundSmiles: "COc1cncc(NC(=O)c2cn3c(n2)sc2ncc(Br)cc23)c1"
  experimentalValue: "< 100 nM"
- compoundSmiles: "COc1ccc2c(c1)sc1nc(CNc3cccnc3)cn12"
  experimentalValue: "> 500 nM"

----------
Target: Q46 protein aggregates (Homo sapiens, UniProt P42858)
Construct: fused on or other part: An N-terminal GST tag, cleaved off with thrombin before the assay to trigger aggregation
Assay: Q46 Radioligand Binding Assay (RBA), displacement of [^3H3]MK-3328
Conditions: 10 nM [^3H3]MK-3328, 5 μM Q46 protein aggregates
Listed next: entries and their corresponding IC50.

- compoundSmiles: "O=C(Nc1cccnc1)c1ccn2c(n1)nc1ccccc12"
  IC50: "> 500 nM"
- compoundSmiles: "COc1cncc(NC(=O)c2ccn3c(n2)nc2cc(OC)ccc23)c1"
  IC50: "< 100 nM"
- compoundSmiles: "COc1ccc2c(c1)sc1nc(C(=O)Nc3ccc(-n4ccnc4)nc3)cn12"
  IC50: "< 100 nM"
- compoundSmiles: "O=C(Nc1ccc(=O)[nH]c1)c1ccn2c(n1)nc1ccccc12"
  IC50: "< 100 nM"
- compoundSmiles: "COc1cncc(NC(=O)c2ccn3c(n2)nc2cc(-c4cncc(OC)c4)ccc23)c1"
  IC50: "< 100 nM"
- compoundSmiles: "COc1ccc2c(c1)sc1nc(C(=O)Nc3cnccn3)cn12"
  IC50: "< 100 nM"

----------
Listed below: pIC50 values for each entry.
Biological target: Q46 protein aggregates (Homo sapiens)
Construct: fused on or other part: An N-terminal GST tag, cleaved off with thrombin before the assay to trigger aggregation
Experiment: Q46 Radioligand Binding Assay (RBA), displacement of [^3H3]MK-3328
Details: 10 nM [^3H3]MK-3328, 5 μM Q46 protein aggregates
pIC50: −log10 of the molar value.
assayReadout: pIC50

- compoundSmiles: "COCCNC(=O)c1cn2c(n1)sc1cc(OC)ccc12"
  experimentalValue: "6.30 to 7.00"
- compoundSmiles: "COc1cncc(NC(=O)c2cn3c(n2)sc2ccccc23)c1"
  experimentalValue: "> 7.00"
- compoundSmiles: "COc1ccc2c(c1)sc1nc(C(=O)Nc3ccncc3)cn12"
  experimentalValue: "> 7.00"
- compoundSmiles: "C=CCOc1ccc2c(c1)sc1nc(C(=O)Nc3ccc(=O)n(C)n3)cn12"
  experimentalValue: "> 7.00"
- compoundSmiles: "COc1cncc(NC(=O)c2cn3c(n2)sc2cc(OC)ccc23)c1"
  experimentalValue: "> 7.00"
- compoundSmiles: "COc1ccc2c(c1)sc1nc(C(=O)NCc3cccnc3)cn12"
  experimentalValue: "< 6.30"
- compoundSmiles: "COc1ccc2c(c1)sc1nc(C(=O)Nc3cccnc3)cn12"
  experimentalValue: "> 7.00"
- compoundSmiles: "COc1ccc2c(c1)sc1nc(C(=O)Nc3ccc[n+]([O-])c3)cn12"
  experimentalValue: "6.30 to 7.00"
- compoundSmiles: "COc1ccc2c(c1)sc1nc(C(=O)Nc3ccc(OC)nc3)cn12"
  experimentalValue: "> 7.00"
- compoundSmiles: "COc1cncc(NC(=O)c2ccn3c(n2)nc2ccccc23)c1"
  experimentalValue: "> 7.00"
- compoundSmiles: "COc1cncc(NC(=O)c2cn3c(nc4cc(OC)ccc43)s2)c1"
  experimentalValue: "> 7.00"
